Organism: Rattus norvegicus
Experimental Details: DrugMatrix - Regimen: Daily Repeat
Assay type: toxicity, organism-based, Sprague-Dawley
Set-up: regimen Daily Repeat, gender Male, age 6-8 weeks
Settings: in vivo, po, 10 mg/kg, 120 h, tissue Plasma, route oral GAVAGE, dose level Low, time 5 day, […]

Compound	CHLORIDE / MEQ/L
CC(C)CC(N(C)C)C1(c2ccc(Cl)cc2)CCC1 (centres undefined) [SIBUTRAMINE]	101.33
COc1ccc2cc([C@H](C)C(=O)O)ccc2c1 [NAPROXEN]	104
COCCOC(=O)C1=C(C)NC(C)=C(C(=O)OC(C)C)C1c1cccc([N+](=O)[O-])c1 (centres undefined) [NIMODIPINE]	100
CCOC(=O)C1=C(C)NC(C)=C(C(=O)OC)C1c1cccc([N+](=O)[O-])c1 (centres undefined) [NITRENDIPINE]	101
